# tested_system: MAST2, Q6P0Q8
# Sequence (Q6P0Q8 1099-1202): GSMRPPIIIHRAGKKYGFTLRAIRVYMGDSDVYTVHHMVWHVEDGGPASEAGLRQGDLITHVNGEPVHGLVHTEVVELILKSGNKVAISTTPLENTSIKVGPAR
# test: holdup assay
# Set-up: key: below the threshold = too weak to quantify, mostly under pKd 3.1 to 4
# run_parameters: plain residues with an end cap or a label only (N-terminal biotin on a linker: ahx)
observation_type: pKd
Answer as a number with no unit attached.

// lookup pKd for GYDWGPATDL [TJP3, O95049] 5.77

What do we get for RRRKRKRTYL [HPV49-L2, P36762] ? 4.22

What about this binder? RAVEEEESRF [PSCDBP, O60759] 4.45

Same read-out for SDSSGQEYSL [KCTD3, Q9Y597] ? 4.53

Then LSDPSVSTVV [GRIN1, Q05586;Q05586-2] ? 4.25

# iterate: TVICWPGSLV [LNX2, Q8N448] 4.1

What about NRKREIFSNF [NHERF2, Q15599] ? 3.89
